test system: E. coli; experiment: Photoinactivation of bacteria by phenoselenazinium derivatives (E. coli); assay type: cell-based; conditions: 10 μM photosensitiser, 30 min 37° C., 665 nm laser, 3 J/cm^2 (10 mW/cm^2)
This listing pairs compounds with measured Log change in CFU/mL.

Substance smiles	Log change in CFU/mL
CCCCCN(CCCCC)c1ccc2nc3ccc(N(CCCCC)CCCCC)cc3[se+]c2c1	3.66 (2.23) log CFU/mL
CCCN(CCC)c1ccc2nc3ccc(N(CCC)CCC)cc3[se+]c2c1	3.16 (0.03) log CFU/mL
CCN(CC)c1ccc2nc3ccc(N(CC)CC)cc3[se+]c2c1	3.78 (0.28) log CFU/mL

Data origin, for the record: patent US7407948B2
